Hello, the source for this data is paper PMC5540273, in case you need it.

System: LCK
study.conditions: concentration: 1 μM, replicates: in singlicate; n = 1;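 further: KINOMEscan kinase panel screen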
Recorded %Inh by entry
# number only, unit % dropped from output

May I ask what %Inh has been recorded for COc1ccc(NC(=O)c2ccc(-c3cc(-c4nnc(C)o4)ccc3C)cc2)cc1 ? 18

Fill in: %Inh of COC(=O)c1cccc(NC(=O)NCCNc2ccnc(Nc3ccc(F)cc3)n2)c1 is ___ 5

Give the measured %Inh of Cn1cc(-c2ccc3c(c2)CCN3C(=O)Cc2cccc(C(F)(F)F)c2)c2c(N)ncnc21 . 20

// returns reported %Inh for input COc1ccc(NC(=O)Nc2ccc(C)c(-c3ccc(C(=O)Nc4ccncc4)cc3)c2)cc1 47

For the compound Fc1cccc(COc2ccc(Nc3ncnc4nn5ccccc5c34)cc2Cl)c1 , what %Inh is on record? 5

Quick one: %Inh of Cl.Cn1ccc(-c2cccc(Nc3ccnc4cc(-c5nccs5)ccc34)c2)n1 ? 3

GET /values?readout=%Inh&item= CNc1nccc(-c2c(-c3ccc(F)cc3)ncn2CCCN2CCOCC2)n1 1

Item Clc1cc(Nc2ncnc3cc[nH]c23)ccc1OCc1ccccn1 has what recorded %Inh? 7

Now, please, on to the next compound.
Consider the compound shown here: Oc1ccc2ncnc(Nc3ccc(OCc4ccccc4)cc3)c2c1 What is its recorded %Inh? 2

---

Tested on: AURKA
study.conditions: concentration: 1 μM, replicates: in singlicate; n = 1
In this section we review reported %Inh values for a set of molecules.
Return type: number; implicit unit %.

Guide cases for %Inh, answers given:
What value of %Inh has been reported for the following molecule? COc1cc2c(Nc3cccc(NC(=O)c4ccccc4)c3)ncnc2cc1OCCCN1CCOCC1 25

State the recorded %Inh for this entry: Fc1ccc(-c2ncn(CCCNCc3ccccc3)c2-c2ccncc2)cc1 19

Entry Cl.Cn1ccc(-c2cccc(Nc3ccnc4cc(-c5nccs5)ccc34)c2)n1 : reported %Inh = ? 0

---
For the molecule shown here, Cl.c1ccc(Cn2ncc3cc(Nc4ncnc5ccccc45)ccc32)cc1 , give the reported %Inh. 10

What measured %Inh goes with Cn1ccc2ncnc(Nc3ccc(Oc4cccc(Cl)c4)c(Cl)c3)c21 ? 0

---

Tested on: PFTAIRE2
study.conditions: concentration: 1 μM, replicates: in singlicate; n = 1
Consider the following compounds and their measured %Inh readings.
Reply numerically in %, unit not repeated.

The following compounds have reported results that may help.
Tell me the measured %Inh of Fc1ccc(Nc2nccc(-c3c(-c4ccc(Cl)cc4)nn4ncccc34)n2)cc1F , please. 4

Recorded %Inh of Cc1ccc(NC(=O)c2cccc(C#N)c2)cc1-c1ccc(C(=O)Nc2ccncc2)cc1 , please. 13

Looking for the measured %Inh of c1ccc(-c2ccc3c(-c4ccnc(Nc5ccc6c(c5)OCCO6)n4)cnn3n2)cc1 , can you help? 5

What measured %Inh goes with CN1CCC(n2cnc(-c3ccc(F)cc3)c2-c2ccnc(NC3CCNCC3)n2)CC1 ? 17

Consider the compound shown here: CS(=O)(=O)CCNCc1ccc(-c2ccc3ncnc(Nc4ccc(OCc5ccccc5)c(Cl)c4)c3c2)o1.Cl What is its recorded %Inh? 0

Request the reported %Inh associated with Clc1cccc(-c2nc(Nc3ccncc3)c3ccccc3n2)c1 0

Which %Inh value belongs to Cc1cc(N2CCC(NS(=O)(=O)c3ccc(F)cc3)CC2)nc(Nc2cccc(C#N)c2)n1.O=C(O)C(F)(F)F ? 10

State the recorded %Inh for this entry: CS(=O)(=O)CCNCc1nc(-c2ccc3ncnc(Nc4ccc(OCc5cccc(F)c5)c(Cl)c4)c3c2)cs1.Cl 12

Give its %Inh value. Item: Fc1ccc(-c2ncn(CCCNCc3ccccc3)c2-c2ccncc2)cc1 0

Bench note: what %Inh did Cl.Cn1ccc(-c2cccc(Nc3ccnc4cc(-c5nccs5)ccc34)c2)n1 show? 0

Further cases:
Would you kindly share the measured %Inh for CN1c2ccc(-c3ccc(C(=O)NCCO)cc3)cc2-c2[nH]ncc2S1(=O)=O ? 0

Name the reported %Inh value associated with the compound Cc1ccc(O)cc1Nc1cc(C(F)(F)F)nc2ccc(-c3ccncc3)cc12 34

For the compound shown here, COC(=O)c1c(-c2ccccc2)c2cc(Cl)ccc2c(=O)n1Cc1ccc(S(C)(=O)=O)cc1 , give the reported %Inh. 0

Name the recorded %Inh for O=C(CCO)NCCn1ccc2ncnc(Nc3ccc(Oc4cccc(C(F)(F)F)c4)c(Cl)c3)c21 . 0

So what's the measured %Inh for this one? Clc1cc(Nc2ncnc3cc[nH]c23)ccc1OCc1ccccn1 5

%Inh lookup needed for CCCc1ccc(S(=O)(=O)NC2CCN(c3ccnc(Nc4ccc(OC)cc4)n3)C2)cc1 (stereo not drawn) , thanks. 5

Which measured %Inh value corresponds to COC(=O)c1cccc(NC(=O)NCCNc2ccnc(Nc3ccc(F)cc3)n2)c1 ? 9

---

Tested on: ARK5
Construct: gene NUAK1
study.conditions: concentration: 1 μM, replicates: in singlicate; n = 1
Quick list: %Inh per entry.
# output: bare number, implied unit %

Reference set, count: 5
// lookup %Inh | system=ARK5 | key= Nc1nc(-c2ccc3c(N)n[nH]c3c2)cc(N2CCC[C@@H](C(=O)Nc3ccccc3)C2)n1.O=C(O)C(F)(F)F.O=C(O)C(F)(F)F 0

Return %Inh measured with ARK5 given this molecule: O=C(c1ccc(-c2cc(-c3c[nH]nc3-c3ccccn3)ccn2)cc1)N1CCCC1 0

# query: %Inh | item COc1ccc(NC(=O)Nc2ccc(C)c(-c3ccc(C(=O)Nc4ccncc4)cc3)c2)cc1 | system: ARK5 0

Give %Inh (ARK5) of the following molecule: CCc1nc(-c2cccc(N(C)S(=O)(=O)c3ccccc3)c2)c(-c2ccnc(Nc3ccc(N4CCN(C(C)=O)CC4)nc3)n2)s1 16

Query for ARK5: what %Inh does the record show for Fc1cccc(COc2ccc(Nc3ncnc4cc[nH]c34)cc2Cl)c1 ? 11

Please turn your attention to the following entry.
Observed %Inh on ARK5 for Cc1cccc(-c2nc(Nc3ccc4[nH]nnc4c3)c3ccccc3n2)n1 , please. 0

---

Test system: EPHB3
study.conditions: concentration: 1 μM, replicates: in singlicate; n = 1
attribute.measured: %Inh (%)
Kindly answer with a numeric value in %, unit omitted.

Recorded %Inh for COC(=O)c1cccc(NC(=O)NCCNc2ccnc(Nc3ccc(F)cc3)n2)c1 [GSK1379883] with EPHB3, please? 21

Param readout= %Inh; system= EPHB3; entry= Cc1ccc(NC(=O)c2cccc(C#N)c2)cc1-c1ccc(C(=O)Nc2ccncc2)cc1 [GSK1398463] ; returns value. 26

# value lookup — system EPHB3, readout %Inh, item O=C(NCCCN1CCCC1=O)c1cnc(NCc2cc(Cl)ccc2Cl)nc1NC1CCNCC1 0

New cases:
Query %Inh on EPHB3 for CC(C)(C)c1ccc(-n2cnc3c(N)ncnc32)cc1 [SKF-97263] 31

EPHB3 / %Inh / Fc1cccc(COc2ccc(Nc3ncnc4cc[nH]c34)cc2Cl)c1 : value? 0

I'm curious: which %Inh was measured for COc1ccc(NC(=O)Nc2ccc(C)c(-c3ccc(C(=O)Nc4ccncc4)cc3)c2)cc1 [GSK1398475] tested on EPHB3? 13

Requested read-out %Inh, target or system EPHB3, entry COc1ccc(NC(=O)c2ccc(-c3cc(-c4nnc(C)o4)ccc3C)cc2)cc1 [GW595885] 13

I'm curious: which %Inh was measured for CNc1nccc(-c2c(-c3ccc(F)cc3)ncn2C2CCN(C)CC2)n1 [SB-222903] tested on EPHB3? 2

---

Test system: PRKX
study.conditions: concentration: 1 μM, replicates: in singlicate; n = 1
attribute.measured: %Inh (%)
Please give a number only; it is taken to be in %.

GET /values?readout=%Inh&item= COC(=O)c1c(-c2ccccc2)c2cc(Cl)ccc2c(=O)n1Cc1ccc(S(C)(=O)=O)cc1 16

# query: %Inh of entry COc1ccc(-c2oc3ncnc(N)c3c2-c2ccc(OC)cc2)cc1 [SB-589132] 3

Which %Inh is reported for this molecule? CN1CCC(n2cnc(-c3ccc(F)cc3)c2-c2ccnc(NC3CCNCC3)n2)CC1 [SB-229482] 0

Form field: reported %Inh of Clc1ccc(-c2cc(-c3c[nH]nc3-c3ccccn3)ccn2)cc1 [GW681251] 12

***
I would be grateful if you could share the reported %Inh for Cc1ccc(O)cc1Nc1cc(C(F)(F)F)nc2ccc(-c3ccncc3)cc12 [GW630823] . 8

// %Inh lookup, key: Fc1cccc(COc2ccc(Nc3ncnc4cc[nH]c34)cc2Cl)c1 19

---

Items are presented alongside their recorded %Inh.
Tested on: MYLK
study.conditions: concentration: 1 μM, replicates: in singlicate; n = 1
Numbers only here, please. The scale is %.

Before answering, review these 3 worked examples.
Any idea what %Inh was measured for O=C(Nc1ccccc1F)NC1CCN(c2ccnc(Nc3ccc(F)cc3)n2)C1 (centres unmarked) ? 0

Name the recorded %Inh for Clc1cc(Nc2ncnc3cc[nH]c23)ccc1OCc1ccccn1 . 17

Bench note: what %Inh did Fc1ccc(Nc2nccc(-c3c(-c4ccc(Cl)cc4)nn4ncccc34)n2)cc1F show? 38

Moving on to another molecule below.
I'd like to know its %Inh. The molecule in question is Cc1ccc(O)cc1Nc1cc(C(F)(F)F)nc2ccc(-c3ccncc3)cc12 6
